Every entry's value here was drawn from patent US7935706B2.

- TARGET_OR_TEST_SYSTEM: NMDA receptor (NR1 subunit and NR2B subunit) (Mus musculus, UniProt P35438+Q01097)
- Construct: expressed in transfected cells; host or cells: HEK293 cells, transient transfection with pcDNA3.1 plasmids
- Sequence (Q01097 27-1482, other chains not shown): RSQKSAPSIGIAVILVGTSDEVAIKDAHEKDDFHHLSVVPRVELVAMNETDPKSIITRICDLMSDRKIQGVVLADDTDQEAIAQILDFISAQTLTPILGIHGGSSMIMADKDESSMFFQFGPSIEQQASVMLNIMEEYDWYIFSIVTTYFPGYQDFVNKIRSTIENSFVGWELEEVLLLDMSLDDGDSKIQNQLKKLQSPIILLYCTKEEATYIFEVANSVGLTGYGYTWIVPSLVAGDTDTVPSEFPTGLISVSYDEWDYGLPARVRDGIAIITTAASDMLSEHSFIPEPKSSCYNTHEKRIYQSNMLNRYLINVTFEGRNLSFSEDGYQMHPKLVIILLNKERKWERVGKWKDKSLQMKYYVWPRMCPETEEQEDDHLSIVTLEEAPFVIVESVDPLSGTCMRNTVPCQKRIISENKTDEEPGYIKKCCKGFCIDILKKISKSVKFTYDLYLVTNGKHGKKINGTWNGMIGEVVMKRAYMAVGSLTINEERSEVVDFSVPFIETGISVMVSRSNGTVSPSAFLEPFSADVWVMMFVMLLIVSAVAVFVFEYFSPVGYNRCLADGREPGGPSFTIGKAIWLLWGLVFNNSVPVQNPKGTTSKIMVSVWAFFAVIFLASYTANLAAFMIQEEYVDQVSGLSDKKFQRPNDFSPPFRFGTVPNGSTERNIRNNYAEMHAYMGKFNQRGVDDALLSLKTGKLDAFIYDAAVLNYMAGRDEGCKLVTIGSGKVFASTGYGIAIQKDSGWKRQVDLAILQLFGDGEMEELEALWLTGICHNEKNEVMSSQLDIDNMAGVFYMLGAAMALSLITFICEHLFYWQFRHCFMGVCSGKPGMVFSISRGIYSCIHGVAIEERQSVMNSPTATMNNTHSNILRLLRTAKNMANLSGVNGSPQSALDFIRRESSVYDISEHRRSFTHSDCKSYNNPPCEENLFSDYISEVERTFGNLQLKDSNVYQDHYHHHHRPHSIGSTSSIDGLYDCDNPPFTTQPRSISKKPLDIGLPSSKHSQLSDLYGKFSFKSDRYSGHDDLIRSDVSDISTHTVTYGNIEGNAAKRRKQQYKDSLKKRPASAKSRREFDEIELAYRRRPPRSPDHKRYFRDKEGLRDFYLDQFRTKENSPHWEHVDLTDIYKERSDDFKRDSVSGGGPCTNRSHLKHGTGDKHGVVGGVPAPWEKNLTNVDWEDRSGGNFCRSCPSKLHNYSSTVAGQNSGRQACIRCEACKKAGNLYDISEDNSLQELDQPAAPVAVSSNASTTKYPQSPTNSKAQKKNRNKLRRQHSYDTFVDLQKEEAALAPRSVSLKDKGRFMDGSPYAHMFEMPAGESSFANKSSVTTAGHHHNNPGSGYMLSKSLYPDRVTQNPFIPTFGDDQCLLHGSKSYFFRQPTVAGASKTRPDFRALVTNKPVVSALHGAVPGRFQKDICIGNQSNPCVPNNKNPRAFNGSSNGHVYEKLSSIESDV
- METHOD_SUMMARY: Measurement of expression of NMDA receptor and Ca ion influx amount (glutamic acid/glycine-induced, HEK293 cell co-expressing NR1 and NR2B subunits, Fluo-3/AM)
- Type: cell-based
- CONDITION_CONTEXT: Ca ion influx induced with 20 μM glutamic acid/2 μM glycine, HEK293 cell with mouse NR1/NR2B; read-out: Ca2+ IC50
MEASURED_PROPERTY: IC50 (nM)

# COMPOUND_STRUCTURE, IC50, nM
rows = [
    ("O=C(C=C1CCN(c2ccc(F)cc2)CC1)Nc1ccc2[nH]c(=O)oc2c1", 37),
    ("O=C(NCC1CCN(c2ccc(OC(F)(F)F)cc2)CC1)c1ccc2[nH]c(=O)oc2c1", 24),
    ("O=C(NCC1=CCN(c2ccc(C(F)(F)F)cc2)CC1)c1ccc2[nH]c(=O)sc2c1", 31),
]

P. O=C(C=C1CCN(c2ccc(C(F)(F)F)cc2)CC1)Nc1ccc2[nH]c(=O)oc2c1
Q. O=C(Nc1ccc2[nH]c(=O)oc2c1)C(=O)N1CCCN(c2ccc(Cl)c(F)c2)CC1
R. O=C(Nc1ccc2[nH]c(=O)[nH]c2c1)C(=O)N1CCN(c2ccc(C(F)(F)F)cc2)CC1
S. O=C(C=C1CCN(c2ccc(Cl)cn2)CC1)Nc1ccc2[nH]c(=O)oc2c1
T. O=C(CC1(O)CCN(c2ccc(Cl)c(Cl)c2)CC1)Nc1cnc2[nH]c(=O)oc2c1
// query Arrange the 5 compounds from largest to smallest IC50. Reply format: the labels, ordered as requested.
// result T, P, S, Q, R
